Target: human alpha-2C-adrenoceptor (Homo sapiens, UniProt P18825)
Construct: expressed in transfected cells
Sequence (P18825 whole entry): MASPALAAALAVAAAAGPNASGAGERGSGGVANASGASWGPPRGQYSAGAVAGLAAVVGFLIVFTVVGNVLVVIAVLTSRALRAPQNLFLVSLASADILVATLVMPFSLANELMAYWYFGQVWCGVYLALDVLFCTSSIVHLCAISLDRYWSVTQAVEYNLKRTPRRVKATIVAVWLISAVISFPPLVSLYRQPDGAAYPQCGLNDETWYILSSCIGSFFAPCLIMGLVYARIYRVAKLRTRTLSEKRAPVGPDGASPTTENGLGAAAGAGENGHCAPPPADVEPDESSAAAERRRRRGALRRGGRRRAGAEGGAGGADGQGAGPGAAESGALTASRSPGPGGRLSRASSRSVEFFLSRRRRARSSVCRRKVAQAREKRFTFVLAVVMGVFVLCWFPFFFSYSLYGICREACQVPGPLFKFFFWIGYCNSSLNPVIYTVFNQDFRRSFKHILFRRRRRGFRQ
Test: Antagonist activity: inhibition of epinephrine-stimulated 35S-GTPγS binding
Format: biochemical
Conditions: Mean ± SEM; CHO cell membranes, human α2C; 5 μM epinephrine; read-out: KB alpha-2C antagonist effect
Entries and their Kb
Express the result in µM but write the number alone.

Worked examples, 4 compounds total:
>  <compound>
COc1cccc(CNc2ccc(S(=O)(=O)Nc3nc(C)cc(C)n3)cc2)c1 [Compound E]

>  <unit.spec>
µM

>  <Kb>
7.3

$$$$
>  <compound>
Cc1cc(C)nc(NS(=O)(=O)c2ccc(NCc3ccccc3C)cc2)n1 [Compound B]

>  <unit.spec>
µM

>  <Kb>
5.7

$$$$
>  <compound>
Cc1cc(C)nc(NS(=O)(=O)c2ccc(NCc3c(Cl)cccc3Cl)cc2)n1 [Compound C]

>  <unit.spec>
µM

>  <Kb>
6.3

$$$$
>  <compound>
CCn1cc(CNc2ccc(S(=O)(=O)Nc3nc(C)cc(C)n3)cc2)c2ccccc21 [Compound F]

>  <unit.spec>
µM

>  <Kb>
12

$$$$

IN: State the recorded Kb for this entry: COc1ccccc1CCNc1ccc(S(=O)(=O)Nc2nc(C)cc(C)n2)cc1 [Compound G]
OUT: 4.7
